- Tested on: KM12 colon
- Procedure details: NCI tumour cell line growth inhibition, 48 h
Where a SMILES comes first, the peptide text is derived from it. The star is where a group is joined. Boc = CC(C)(C)OC(=O)*
Assignment: determine reported TGI for the given molecules.

Consider CC(NC(=O)C(NC(=O)OC(C)(C)C)C(C)C)C(=O)NCC(=O)O (stereo not drawn) (Boc-Val-Ala-Gly-OH; configuration not given here) . Its measured TGI is > 100 µM

The molecule COc1cccc(/C=C/C2=NN(c3cccc(S(=O)(=O)O)c3)C3(C2)SCC(=O)N3c2nc3ccccc3s2)c1 (stereo not given) showed TGI equal to > 100 µM

Short answer for O=c1c(OC/C(=N/O)c2ccccc2)c(-c2ccccc2)oc2ccccc12 : TGI was 24.6 µM

The recorded TGI for entry COc1ccc(N=C/C=C/Nc2ccc(OC)cc2)cc1 equals 9.55 µM

Lab book: TGI of COC(=O)c1ccc(OCc2ccc3oc(=O)c(-c4ccccc4)nc3c2)cc1 noted as > 100 µM
